Origin of measurements: ChEMBL document CHEMBL5058577

Measured Total Cell Count accompanies every entry in the list below.
- Tested on: Fibroblast
- assay.info: Multiplex assay against human fibroblast
- Type: toxicity, cell-based
- run.conditions: 24 h, 1 µM, compound concentration 1 uM, replicate 1
metric: Total Cell Count

                              sample_smiles  endpoint_result
0  COc1cc(Nc2ncc3c(n2)-c2ccc(Cl)cc2C(c2c(F)cccc2OC)=NC3)ccc1C(=O)O              123
1  CC(C)(O)C(=O)N1CCN(c2ccc(C(F)(F)F)c(C3=C(c4c[nH]c5ccccc45)C(=O)NC3=O)c2)CC1              161
2         O=c1nc2[nH]c3ccccc3nc-2c(=O)[nH]1              190
3  C[C@H](NC(=O)CNC(=O)c1cccc(Cl)c1)c1ccccc1               93
4  COC(c1ccccc1)(c1ccccc1)[C@H](Oc1nc(C)cc(C)n1)C(=O)O               95
5  Nc1nc(CC(=O)Nc2ccc(CCNC[C@H](O)c3ccccc3)cc2)cs1              156
6  N[C@](CC1c2ccccc2Oc2ccccc21)(C(=O)O)[C@H]1C[C@@H]1C(=O)O              183
7  Cc1c(Cc2ccc3ccccc3n2)c2cc(F)ccc2n1CC(=O)O              158
8  C=CCN1C[C@H](C(=O)N(CCCN(C)C)C(=O)NCC)C[C@@H]2c3cccc4[nH]cc(c34)C[C@H]21              198
